Target: Voltage-gated inwardly rectifying potassium channel KCNH2 (Homo sapiens); also: assay procedure not described here
Format: functional
Experimental context: read-out: AC50; also: assay procedure not described here
Parameter: AC50

{"columns": ["Compound", "Assay result"],
 "data": [
  ["O=C(OCCN1CCOCC1)c1cccnc1Nc1cccc(C(F)(F)F)c1 [MORNIFLUMATE]", "4.35 µM"],
  ["C=C1CC[C@@]2(O)[C@H]3Cc4ccc(O)c5c4[C@@]2(CCN3CC2CC2)[C@H]1O5", "28 µM"],
  ["CCCCN1CCCCC1C(=O)Nc1c(C)cccc1C (stereo not drawn) [BUPIVACAINE]", "11 µM"]
]}

Asked: Need AC50, item CS(=O)(=O)c1ccc([C@@H](O)[C@@H](CO)NC(=O)C(Cl)Cl)cc1 [THIAMPHENICOL]
Given back: > 30 µM

Asked: Fill blank: measured AC50 of the compound O=C(NC1CCN(CCCCC2(C(=O)NCC(F)(F)F)c3ccccc3-c3ccccc32)CC1)c1ccccc1-c1ccc(C(F)(F)F)cc1 [LOMITAPIDE] is ____.
Given back: 0.86 µM

###

Read-out record for 5-hydroxytryptamine receptor 2C (Homo sapiens): AC50

These solved cases illustrate the format of a correct answer.
{"columns": ["Molecule", "AC50"],
 "data": [
  ["CC(C)(N)Cc1ccc(Cl)cc1", "> 30 µM"],
  ["COc1ccc2c(c1)C(=O)N(CCc1ccc(S(=O)(=O)NC(=O)NC3CCCCC3)cc1)C(=O)C2(C)C", "> 30 µM"],
  ["COC(=O)[C@H]1[C@@H](OC(=O)c2ccccc2)C[C@@H]2CC[C@H]1N2C", "> 30 µM"],
  ["Nc1ncnc2c1ncn2[C@@H]1O[C@H](COP(=O)(O)O)[C@@H](O)[C@H]1O [ADENOSINE PHOSPHATE]", "> 30 µM"],
  ["CC(C(O)c1ccc(O)cc1)N1CCC(Cc2ccccc2)CC1 (centres undefined)", "> 30 µM"]
]}

Asked: Param item = O=C1CCC(N2C(=O)c3ccccc3C2=O)C(=O)N1 (centres undefined) [THALIDOMIDE] ; retrieve measured AC50.
Given back: > 30 µM

Asked: Could you tell me which AC50 is on file for `COc1ccc2c(c1)c(CC(=O)OCC(=O)O)c(C)n2C(=O)c1ccc(Cl)cc1` ?
Given back: > 30 µM

Asked: May I ask what AC50 has been recorded for `Nc1nc2ccc(OC(F)(F)F)cc2s1` ?
Given back: > 30 µM

Asked: What AC50 value was documented for this molecule, CCc1ccc(CCOc2ccc(CC3SC(=O)NC3=O)cc2)nc1 (centres undefined) ?
Given back: > 10 µM

###

Entries with their measured AC50, system Estrogen receptor (Homo sapiens, UniProt P03372):

{"columns": ["Compound", "AC50"],
 "data": [
  ["C[C@]12CCC(=O)C=C1CC[C@@H]1[C@@H]2CC[C@@]2(C)[C@H]1CC[C@]2(C)O [METHYLTESTOSTERONE]", "> 30 µM"],
  ["CC[C@]1(O)C[C@@H]2CN(CCc3c([nH]c4ccccc34)[C@@](C(=O)OC)(c3cc4c(cc3OC)N(C)[C@H]3[C@@](O)(C(N)=O)[C@H](O)[C@]5(CC)C=CCN6CC[C@]43[C@@H]65)C2)C1 [VINDESINE]", "> 30 µM"]
]}

Asked: What measured AC50 is associated with CC(C)[N+](C)(CCC(C(N)=O)(c1ccccc1)c1ccccc1)C(C)C [ISOPROPAMIDE] on Estrogen receptor (Homo sapiens, UniProt P03372)?
Given back: > 10 µM

Asked: # value lookup — system Estrogen receptor (Homo sapiens, UniProt P03372), readout AC50, item CC(C(=O)O)c1ccc(N2CC=CC2)c(Cl)c1 (centres undefined) [PIRPROFEN]; also: assay procedure not described here
Given back: > 30 µM

###

Observed AC50 values for Glutamate receptor ionotropic, NMDA 1 (Rattus norvegicus) are listed in what follows.

Asked: So what's the measured AC50 for this one? Nc1ncnc2c1ncn2[C@@H]1O[C@H](COP(=O)(O)O)[C@@H](O)[C@H]1O [ADENOSINE PHOSPHATE]
Given back: > 30 µM

###

Target: Amine oxidase [flavin-containing] A (Homo sapiens); also: assay procedure not described here
Sequence (P21397 whole entry): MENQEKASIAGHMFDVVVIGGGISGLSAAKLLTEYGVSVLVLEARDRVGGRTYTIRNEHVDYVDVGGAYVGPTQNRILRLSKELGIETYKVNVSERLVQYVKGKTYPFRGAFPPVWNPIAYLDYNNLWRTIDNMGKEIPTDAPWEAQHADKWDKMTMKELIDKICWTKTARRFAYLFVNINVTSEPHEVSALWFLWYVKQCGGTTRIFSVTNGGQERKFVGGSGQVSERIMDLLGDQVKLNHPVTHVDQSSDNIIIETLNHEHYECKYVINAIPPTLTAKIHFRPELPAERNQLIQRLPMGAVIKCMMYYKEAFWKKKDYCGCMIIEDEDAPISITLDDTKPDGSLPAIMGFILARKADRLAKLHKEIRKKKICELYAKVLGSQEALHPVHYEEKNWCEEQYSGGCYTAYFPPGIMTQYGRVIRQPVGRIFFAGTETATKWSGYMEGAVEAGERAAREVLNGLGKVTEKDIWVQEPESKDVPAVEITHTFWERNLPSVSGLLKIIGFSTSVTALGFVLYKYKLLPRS
Format: functional
Parameter: AC50

Solved entries:
{"columns": ["Compound", "AC50"],
 "data": [
  ["CC(=O)O[C@@]12CO[C@@H]1C[C@H](O)[C@@]1(C)C(=O)[C@H](O)C3=C(C)[C@@H](OC(=O)[C@H](O)[C@@H](NC(=O)OC(C)(C)C)c4ccccc4)C[C@@](O)([C@@H](OC(=O)c4ccccc4)[C@H]21)C3(C)C [DOCETAXEL ANHYDROUS]", "> 30 µM"],
  ["CC(=O)NS(=O)(=O)c1ccc(N)cc1 [SULFACETAMIDE]", "> 10 µM"],
  ["CN(C)CCCN1c2ccccc2CCc2ccc(Cl)cc21", "> 10 µM"],
  ["O=C(CCCCCCC(=O)Nc1ccccc1)NO", "> 30 µM"],
  ["CCC[C@@H]1C[C@@H](C(=O)N[C@@H]([C@H]2O[C@H](SC)[C@H](O)[C@@H](O)[C@H]2O)[C@H](C)Cl)N(C)C1", "> 10 µM"]
]}

Asked: // returns reported AC50 for input `CCCC(=O)N1CCCN(c2nc(N)c3cc(OC)c(OC)cc3n2)CC1`
Given back: > 30 µM

Asked: # get_value(readout='AC50', item= `COc1ccc(C(=O)N2CCN(c3ccc4c(c3)CCC(=O)N4)CC2)cc1OC` )
Given back: > 30 µM

###

AC50 tested on Glutamate receptor ionotropic, NMDA 1 (Rattus norvegicus, UniProt P35439): recorded values; also: assay procedure not described here

# annotated cases, reported AC50 shown
{"columns": ["Molecule", "AC50"],
 "data": [
  ["C[C@H]1C[C@@H]2[C@H]([C@@H](O)C[C@@]3(C)[C@H]2CC[C@]3(O)C(=O)COC(=O)CCC(=O)O)[C@@]2(C)C=CC(=O)C=C12 [METHYLPREDNISOLONE HEMISUCCINATE]", "> 30 µM"],
  ["COC(=O)[C@H]1[C@@H](OC(=O)c2ccccc2)C[C@@H]2CC[C@H]1N2C [COCAINE]", "> 30 µM"],
  ["CC(C)C(=O)OCC(=O)[C@@]12O[C@H](C3CCCCC3)O[C@@H]1C[C@H]1[C@@H]3CCC4=CC(=O)C=C[C@]4(C)[C@H]3[C@@H](O)C[C@@]12C [CICLESONIDE]", "> 10 µM"],
  ["O=C(Nc1ccccc1)OCC(CN1CCCCC1)OC(=O)Nc1ccccc1 (configuration not stated) [DIPERODON]", "> 10 µM"],
  ["NS(=O)(=O)c1cc2c(cc1Cl)NC(CC1CCCC1)NS2(=O)=O (configuration not stated) [CYCLOPENTHIAZIDE]", "> 30 µM"],
  ["CCN(CC)CCOC(=O)c1ccc(N)cc1 [PROCAINE]", "> 10 µM"]
]}

Asked: // map Cc1nc2ccc(CN(C)c3ccc(C(=O)N[C@@H](CCC(=O)O)C(=O)O)s3)cc2c(=O)[nH]1 [RALTITREXED] to recorded AC50 (system: Glutamate receptor ionotropic, NMDA 1 (Rattus norvegicus, UniProt P35439)); also: assay procedure not described here
Given back: > 30 µM

###

Parameter: AC50. Scope: all listed entries.
Target: Voltage-gated inwardly rectifying potassium channel KCNH2 (Homo sapiens, UniProt Q12809); also: assay procedure not described here
Sequence (Q12809 whole entry): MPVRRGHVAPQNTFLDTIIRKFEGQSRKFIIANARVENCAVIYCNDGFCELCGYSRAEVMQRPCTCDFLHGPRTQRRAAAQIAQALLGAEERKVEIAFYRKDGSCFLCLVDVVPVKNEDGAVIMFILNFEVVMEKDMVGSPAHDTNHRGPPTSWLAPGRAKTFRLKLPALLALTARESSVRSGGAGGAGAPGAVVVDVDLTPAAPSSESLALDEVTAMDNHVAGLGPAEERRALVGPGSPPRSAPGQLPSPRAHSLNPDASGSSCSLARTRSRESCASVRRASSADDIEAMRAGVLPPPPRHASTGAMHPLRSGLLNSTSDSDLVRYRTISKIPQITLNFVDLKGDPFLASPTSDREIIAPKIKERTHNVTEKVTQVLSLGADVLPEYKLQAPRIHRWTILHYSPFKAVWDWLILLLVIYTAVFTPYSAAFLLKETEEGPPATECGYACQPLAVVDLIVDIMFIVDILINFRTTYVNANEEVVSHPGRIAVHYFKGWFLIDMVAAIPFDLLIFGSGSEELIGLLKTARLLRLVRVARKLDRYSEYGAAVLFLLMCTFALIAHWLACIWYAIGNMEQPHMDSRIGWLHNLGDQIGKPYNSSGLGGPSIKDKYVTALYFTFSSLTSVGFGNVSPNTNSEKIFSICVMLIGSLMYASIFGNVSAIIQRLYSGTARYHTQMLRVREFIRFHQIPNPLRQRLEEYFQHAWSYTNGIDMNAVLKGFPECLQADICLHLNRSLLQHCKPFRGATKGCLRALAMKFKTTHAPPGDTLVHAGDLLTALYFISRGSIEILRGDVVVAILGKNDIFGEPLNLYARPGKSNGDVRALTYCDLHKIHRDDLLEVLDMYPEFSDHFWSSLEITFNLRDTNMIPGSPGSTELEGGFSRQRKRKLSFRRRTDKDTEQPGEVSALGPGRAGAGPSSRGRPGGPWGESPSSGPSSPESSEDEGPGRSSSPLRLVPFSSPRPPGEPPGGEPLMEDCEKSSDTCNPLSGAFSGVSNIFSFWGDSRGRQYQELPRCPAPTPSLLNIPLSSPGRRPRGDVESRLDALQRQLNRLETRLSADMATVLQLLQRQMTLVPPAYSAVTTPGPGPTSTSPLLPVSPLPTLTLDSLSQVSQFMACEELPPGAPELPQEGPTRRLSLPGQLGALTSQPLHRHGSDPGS
Type: functional
Experimental context: human, cellular components

{"columns": ["Query sequence", "Parameter", "Assay result"],
 "data": [
  ["HYDROXOCOBALAMIN", "AC50", "> 30 µM"]
]}

We now examine a further sequence.
Asked: Consider the sequence shown here: `TOCOFERSOLAN` What is its recorded AC50?
Given back: > 30 µM
